Exercise: for every item that follows, state its recorded bleeding time extending ratio.
tested on: male ICR mice; assay: Test 1: Prolongation of Bleeding Time in Mice; format: in vivo, mouse (ICR); settings: 10 mg/kg, oral, 3 days (48, 24 and 4 hours before); ratio test compound-treated to control; cut-off 300 seconds
Numbers only.

Example cases with answers are listed next.
# MOLECULE, bleeding time extending ratio
measured = [
    ("COC(=O)C(c1ccccc1F)N1CCC(SC(=O)c2ccccc2)CC1 (stereo not drawn)", 1.24),
    ("CC(=O)SC1CCN(C(C(=O)C2CC2)c2ccccc2F)CC1 (stereo not drawn)", 1.06),
    ("CC(=O)SC1CCN(C(C(=O)C2CC2)c2ccccc2F)C/C1=C\\C(=O)N(C)C (stereo not drawn)", 2.53),
]

Now for another entry.
Given CCCC(=O)SC1CCN(C(C(=O)C2CC2)c2ccccc2F)CC1 (stereo not drawn) , respond with its bleeding time extending ratio.
1.45
